Test system: HepG2 (human hepatocyte carcinoma) cells
experiment-notes: Cytotoxicity, resazurin reduction assay, HepG2
Format: cell-based
attribute-measured: CC50

The observed CC50 for CCC(C)[S+]([O-])c1ccc(-c2nc3ccncc3[nH]2)c(OC)c1 (centres unmarked) when tested with HepG2 (human hepatocyte carcinoma) cells stands at 19.8 µM

###

experiment-notes: Cytotoxicity, resazurin reduction assay, HepG2
Format: cell-based, human
condition: human; primary screen, DMSO stock solution; 48 hours; read-out: CC50 ± SD (µM) HepG2
attribute-measured: CC50 at 48 h (µM)
Give the value, in units of µM, as a plain number.

CC50 at 48 h reading for COc1cc([C@@H]2c3cc4c(cc3[C@H](O)[C@H]3COC(=O)[C@H]23)OCO4)cc(OC)c1OC [Podophyllotoxin, reference compound] : 0.031

###

experiment-notes: Cytotoxicity, resazurin reduction assay, Raw264.7
Format: cell-based, murine
condition: mouse; confirmation screen, powdered form; 48 hours; read-out: CC50 ± SD (µM) Raw
attribute-measured: CC50 at 48 h (µM)
Give the value, in units of µM, as a plain number.

CC50 at 48 h reading for COc1cc([C@@H]2c3cc4c(cc3[C@H](O)[C@H]3COC(=O)[C@H]23)OCO4)cc(OC)c1OC [Podophyllotoxin, reference compound] : 0.016

###

experiment-notes: Cytotoxicity, resazurin reduction assay, Vero
Type: cell-based
condition: African green monkey
attribute-measured: CC50 at 48 h (µM)
Give the value, in units of µM, as a plain number.

Some entries whose results are on file:
INSERT INTO results (compound_string, attribute_measured, observed) VALUES
  ('CN(C)C(=O)/C=C/C(=O)c1ccc(SCc2ccc(Cl)cc2Cl)cc1', 'CC50 at 48 h', 1.2),
  ('Cn1cc(-c2cnc3[nH]cc(-c4cn(Cc5cccc(F)c5F)nn4)c3c2)cn1', 'CC50 at 48 h', 2.8);

CC50 at 48 h reading for `CNS(=O)(=O)c1ccccc1Nc1nc(Nc2cc(OC)c(OC)cc2C)ncc1Br` : 1.01

###

Recorded IC50, one value per entry.
Test system: bloodstream forms of T. b. brucei Lister 427
experiment-notes: Resazurin reduction growth inhibition assay against bloodstream forms of T. b. brucei
Format: cell-based, Trypanosoma brucei brucei
condition: Trypanosoma brucei, 72 h, primary screen, DMSO stock solution; bloodstream form T. b. brucei Lister 427; 72 hours; read-out: IC50 ± SD (µM) T. b. b.

INSERT INTO measurements (molecule, system, attribute_measured, observed) VALUES
  ('COc1ccc(OCC(N)=O)cc1-c1cn2cc(C(=O)NCCc3c(OC)cccc3OC)sc2n1 [OGHL00241]', 'bloodstream forms of T. b. brucei Lister 427', 'IC50', '2.28 µM'),
  ('Cn1cc(-c2cnc3[nH]cc(-c4cn(Cc5cccc(F)c5F)nn4)c3c2)cn1 [OGHL00169]', 'bloodstream forms of T. b. brucei Lister 427', 'IC50', '≤ 1 µM'),
  ('COc1cc(OC)c(CCNC(=O)c2ccc3nc(-c4cc(OC)ccc4OC)cn3c2)c(OC)c1 [OGHL00231]', 'bloodstream forms of T. b. brucei Lister 427', 'IC50', '9 µM'),
  ('COc1nc(/C=C/c2nc3n(n2)CCC[C@@H]3c2ccccc2C(F)(F)F)ccc1-n1cnc(C)c1 [OGHL00211]', 'bloodstream forms of T. b. brucei Lister 427', 'IC50', '2.37 µM'),
  ('CNC(=O)c1cc(Oc2ccc(NC(=O)Nc3cc(C(F)(F)F)ccc3-n3ccnc3)cc2)ccn1 [OGHL00130]', 'bloodstream forms of T. b. brucei Lister 427', 'IC50', '3 µM');

The observed IC50 for CN(C)C(=O)/C=C/C(=O)c1ccc(SCc2ccc(Cl)cc2Cl)cc1 [OGHL00006] when tested with bloodstream forms of T. b. brucei Lister 427 stands at ≤ 1 µM

The observed IC50 for CNS(=O)(=O)c1ccccc1Nc1nc(Nc2ccc(N3CCOCC3)cc2OC)ncc1Br [OGHL00134] when tested with bloodstream forms of T. b. brucei Lister 427 stands at 1.3 µM

###

Recorded CC50 at 48 h, one value per entry.
experiment-notes: Cytotoxicity, resazurin reduction assay, HepG2
Assay type: cell-based, human
condition: human
Give the value, in units of µM, as a plain number.

Some entries whose results are on file:
INSERT INTO results (compound, attribute_measured, unit_annotation, observed) VALUES
  ('CN(C)C(=O)/C=C/C(=O)c1ccc(SCc2ccc(Cl)cc2Cl)cc1', 'CC50 at 48 h', 'µM', 17.5),
  ('CNC(=O)c1cc(Oc2ccc(NC(=O)Nc3cc(C(F)(F)F)ccc3-n3ccnc3)cc2)ccn1', 'CC50 at 48 h', 'µM', 12.9),
  ('Cn1cc(-c2cnc3[nH]cc(-c4cn(Cc5cccc(F)c5F)nn4)c3c2)cn1', 'CC50 at 48 h', 'µM', 50),
  ('CCN=C(c1ccc(OC)c(OC)c1)N1CCCc2cc(C3=NNC(=O)SC3C)ccc21 (centres unmarked)', 'CC50 at 48 h', 'µM', 48.4),
  ('COc1nc(/C=C/c2nc3n(n2)CCC[C@@H]3c2ccccc2C(F)(F)F)ccc1-n1cnc(C)c1', 'CC50 at 48 h', 'µM', 5.94);

We now examine a further compound.
CC50 at 48 h reading for `CCOc1cc(CCNC(=O)C[C@H]2S[C@@H](c3ccc(C#Cc4ccccc4)cc3)N(c3cccc(C(N)=O)c3)C2=O)ccc1O` : 50

###

Recorded IC50, one value per entry.
System: bloodstream forms of T. b. brucei Lister 427
experiment-notes: Resazurin reduction growth inhibition assay against bloodstream forms of T. b. brucei
Format: cell-based, Trypanosoma brucei brucei
condition: Trypanosoma brucei, 72 h, primary screen, DMSO stock solution; bloodstream form T. b. brucei Lister 427; 72 hours; read-out: IC50 ± SD (µM) T. b. b.
Give the value, in units of µM, as a plain number.

IC50 reading for COc1nc(/C=C/c2nc3n(n2)CCCC3c2ccccc2C(F)(F)F)ccc1-n1cnc(C)c1 (stereo not shown) [OGHL00208] : 7.53

IC50 reading for CCOc1cc(CCNC(=O)C[C@H]2S[C@@H](c3ccc(C#Cc4ccccc4)cc3)N(c3cccc(C(N)=O)c3)C2=O)ccc1O [OGHL00183] : 9.64

###

experiment-notes: Cytotoxicity, resazurin reduction assay, Vero
Format: cell-based
condition: African green monkey; confirmation screen, powdered form; 48 hours; read-out: CC50 ± SD (µM) Vero
attribute-measured: CC50 at 48 h (µM)
Give the value, in units of µM, as a plain number.

CC50 at 48 h reading for COc1cc([C@@H]2c3cc4c(cc3[C@H](O)[C@H]3COC(=O)[C@H]23)OCO4)cc(OC)c1OC [Podophyllotoxin, reference compound] : 0.08

###

experiment-notes: Cytotoxicity, resazurin reduction assay, Raw264.7
Type: cell-based, murine
condition: mouse
attribute-measured: CC50 at 48 h (µM)
Give the value, in units of µM, as a plain number.

Some entries whose results are on file:
INSERT INTO measurements (molecule, unit_annotation, observed) VALUES
  ('Cn1cc(-c2cnc3[nH]cc(-c4cn(Cc5cccc(F)c5F)nn4)c3c2)cn1 [OGHL00169]', 'µM', 12.1),
  ('CN(C)C(=O)/C=C/C(=O)c1ccc(SCc2ccc(Cl)cc2Cl)cc1 [OGHL00006]', 'µM', 2.2);

We now examine a further molecule.
CC50 at 48 h reading for CNS(=O)(=O)c1ccccc1Nc1nc(Nc2cc(OC)c(OC)cc2C)ncc1Br [OGHL00133] : 4.5

###

System: HepG2 (human hepatocyte carcinoma) cells
experiment-notes: Cytotoxicity, resazurin reduction assay, HepG2
Assay type: cell-based
attribute-measured: CC50 (µM)
Give the value, in units of µM, as a plain number.

INSERT INTO assay_data (compound_string, unit_annotation, observed) VALUES
  ('COc1cccc(CNc2nnc(-c3c[nH]c4ncccc34)o2)c1', 'µM', 23.1),
  ('COc1ccc(OCCCO)cc1-c1cn2cc(-c3nnc(NCCCCc4ccccc4)o3)ccc2n1', 'µM', 9.07),
  ('CN(CCCCc1ccc(F)cc1)CCC(=O)c1ccc2[nH]c(=O)oc2c1', 'µM', 27.3);

We now examine a further compound.
CC50 reading for `CCCc1nn(C)c2c(=O)[nH]c(-c3cc(C(=O)N=C(N)N)ccc3OCC)nc12` : 41.5

###

Tested on: bloodstream forms of T. b. brucei Lister 427
experiment-notes: Resazurin reduction growth inhibition assay against bloodstream forms of T. b. brucei
Format: cell-based, Trypanosoma brucei brucei
condition: Trypanosoma brucei, 72 h, primary screen, DMSO stock solution; bloodstream form T. b. brucei Lister 427; 72 hours; read-out: IC50 ± SD (µM) T. b. b.
Hi! Could you tag entries with IC50 below 9 µM as condition met, and those at or above as condition not met? Much appreciated.

INSERT INTO measurements (compound_string, system, class_name) VALUES
  ('COc1cc(OC)c(CCNC(=O)c2cn3cc(-c4cc(OC)ccc4OC)nc3s2)c(OC)c1', 'bloodstream forms of T. b. brucei Lister 427', 'condition met');

Given `COc1cc(OC)c(CCNC(=O)c2cn3cc(-c4cc(OCC#N)ccc4OC)nc3s2)c(OC)c1` , is recorded IC50 strictly lower than 9 µM? condition met

Given `COc1ccc(OC)c(CCNC(=O)c2cn3cc(-c4cc(OC)ccc4OC)nc3s2)c1` , is recorded IC50 strictly lower than 9 µM? condition not met
